# Lookup of reported IC50, fibrinogen clotting assay, 37 °C keyed by entry
- target: Human α-thrombin (human, UniProt P00734 328-363; P00734 364-622)
- test_summary: cell-based or functional assay
No end group written: not given here.
Use nM as the unit, but write only the number.

IRFTDGEWTYDDATKTFTWTEGDFEEIPEEYLQ [MH2-wZIP5] : 107
IRFTDGEWTWDDATKTWTWTEGDFEEIPEEYLQ (ends and bridges not checked; also: 15N-labelled) [MH2-wZIP4] : 154
IRFTDGEWTYDDATKTFTVTEGDFEEIPEEYLQ (ends and bridges not checked) [MH2-gb1] : 86

The reported value for IRFTDGEWTWDDATKTWTVTEGDFEEIPEEYLQ [MH2-wZIP6] in terms of IC50, fibrinogen clotting assay, 37 °C is 53
